- assay-explanation: Absorbance at photostationary state (PSS) under simulated sunlight or 365 nm light
- Assay type: physicochemical
- condition-parameters: simulated sunlight (QSUN solar simulator), no UV blocking film; 2.0×10^−5 M in triglyme
Could you mark each record yes (1) if its Absorbance at PSS, full falls strictly under 0.2, and no (0) if it equals or exceeds it?

CC(C)(C)c1ccc(-c2cc(C3=C(c4cc(-c5ccc(C(C)(C)C)s5)sc4-c4ccc(OCCCO)cc4)C(F)(F)C(F)(F)C3(F)F)c(-c3ccc(OCCCO)cc3)s2)s1: no (0)
Cc1ccc(-c2cc(C3=C(c4cc(-c5ccc(C)s5)sc4-c4ccc(C)s4)C(F)(F)C(F)(F)C3(F)F)c(-c3ccc(C)s3)s2)s1: no (0)
CC(C)(C)COc1ccc(-c2cc(C3=C(c4cc(-c5ccc(OCC(C)(C)C)cc5)sc4-c4ccc(OCC(C)(C)C)cc4)C(F)(F)C(F)(F)C3(F)F)c(-c3ccc(OCC(C)(C)C)cc3)s2)cc1: yes (1)
CCOCCOCCOCCOc1ccc2c(C3=C(c4c(-c5ccc(C(C)(C)C)cc5)oc5cc(OCCOCCOCCOCC)ccc45)C(F)(F)C(F)(F)C3(F)F)c(-c3ccc(C(C)(C)C)cc3)oc2c1: yes (1)
Cc1ccc(-c2ccc(-c3cc(C4=C(c5cc(-c6ccc(-c7ccc(C)s7)s6)sc5-c5ccc(C)s5)C(F)(F)C(F)(F)C4(F)F)c(-c4ccc(C)s4)s3)s2)s1: no (0)

Query: Determine if "CCCCCCCCc1ccc(-c2oc3ccccc3c2C2=C(c3c(-c4ccc(CCCCCCCC)cc4)oc4ccccc34)C(F)(F)C(F)(F)C2(F)F)cc1" shows Absorbance at PSS, full strictly lower than 0.2.
Result: yes (1)

Query: Determine if "CC(C)(C)c1ccc(-c2cc(C3=C(c4cc(-c5ccc(C(C)(C)C)s5)sc4-c4ccc(C(=O)O)s4)C(F)(F)C(F)(F)C3(F)F)c(-c3ccc(C(=O)O)s3)s2)s1" shows Absorbance at PSS, full strictly lower than 0.2.
Result: no (0)

Query: Determine if "FC1(F)C(c2cc(-c3ccc(Cl)cc3)sc2-c2ccc(Cl)cc2)=C(c2cc(-c3ccc(Cl)cc3)sc2-c2ccc(Cl)cc2)C(F)(F)C1(F)F" shows Absorbance at PSS, full strictly lower than 0.2.
Result: yes (1)

Query: Determine if "CC(C)(C)c1ccc(-c2cc(C3=C(c4cc(-c5ccc(C(C)(C)C)s5)sc4-c4cccs4)C(F)(F)C(F)(F)C3(F)F)c(-c3cccs3)s2)s1" shows Absorbance at PSS, full strictly lower than 0.2.
Result: no (0)

Query: Determine if "COc1ccc(-c2cc(C3=C(c4cc(-c5ccc(OC)s5)sc4-c4ccc(OC)s4)C(F)(F)C(F)(F)C3(F)F)c(-c3ccc(OC)s3)s2)s1" shows Absorbance at PSS, full strictly lower than 0.2.
Result: yes (1)

###

- assay-explanation: Absorbance at photostationary state (PSS) under simulated sunlight or 365 nm light
- Format: physicochemical
- condition-parameters: 365 nm light source; 2.0×10^−5 M in triglyme
Quick rule: Absorbance at PSS, 365 nm of at least 0.4 means yes, below that means no.

As a guide, the following entries are already answered.
COc1ccc(-c2cc(C3=C(c4cc(-c5ccc(OC)cc5)sc4-c4ccc(C#N)cc4)C(F)(F)C(F)(F)C3(F)F)c(-c3ccc(C#N)cc3)s2)cc1: no
COc1ccc2c(C3=C(c4c(-c5ccc(-c6ccc(C(C)(C)C)s6)s5)oc5cc(OC)ccc45)C(F)(F)C(F)(F)C3(F)F)c(-c3ccc(-c4ccc(C(C)(C)C)s4)s3)oc2c1: no
O=C(O)c1ccc(-c2cc(C3=C(c4cc(-c5ccc(C(=O)O)s5)sc4-c4ccc(C(=O)O)s4)C(F)(F)C(F)(F)C3(F)F)c(-c3ccc(C(=O)O)s3)s2)s1: no
N#Cc1ccc(-c2cc(C3=C(c4cc(-c5ccc(C#N)cc5)sc4-c4ccc(C#N)cc4)C(F)(F)C(F)(F)C3(F)F)c(-c3ccc(C#N)cc3)s2)cc1: no
COc1ccc(-c2sc(-c3cc4ccccc4s3)cc2C2=C(c3cc(-c4cc5ccccc5s4)sc3-c3ccc(OC)cc3)C(F)(F)C(F)(F)C2(F)F)cc1: yes

Query: Kindly determine if Absorbance at PSS, 365 nm recorded for "c1ccc(-c2nc(-c3nc(-c4ccccc4)sc3-c3nc(-c4ccccc4)sc3-c3ccccc3)c(-c3ccccc3)s2)cc1" is above or exactly 0.4.
Result: yes

###

molecules and their reported Absorbance at PSS, full
- assay-explanation: Absorbance at photostationary state (PSS) under simulated sunlight or 365 nm light
- Format: physicochemical
- condition-parameters: simulated sunlight (QSUN solar simulator), no UV blocking film; 2.0×10^−5 M in triglyme
No unit in the answer, only the number.

Query: Give recorded Absorbance at PSS, full. CC(C)(C)c1ccc(-c2sc(-c3cccs3)cc2C2=C(c3cc(-c4cccs4)sc3-c3ccc(C(C)(C)C)cc3)C(F)(F)C(F)(F)C2(F)F)cc1 [S052]
Result: 0.206

Query: Give recorded Absorbance at PSS, full. COc1ccc2c(C3=C(c4c(-c5ccc(-c6ccc(C(C)(C)C)s6)s5)oc5cc(OC)ccc45)C(F)(F)C(F)(F)C3(F)F)c(-c3ccc(-c4ccc(C(C)(C)C)s4)s3)oc2c1 [S152]
Result: 0.069

Query: Give recorded Absorbance at PSS, full. Oc1ccc(-c2cc(C3=C(c4cc(-c5ccc(O)cc5)sc4-c4ccc(O)cc4)C(F)(F)C(F)(F)C3(F)F)c(-c3ccc(O)cc3)s2)cc1 [S084]
Result: 0.09

Query: Give recorded Absorbance at PSS, full. CC(C)(C)c1ccc(-c2oc3cc(O)ccc3c2C2=C(c3c(-c4ccc(C(C)(C)C)cc4)oc4cc(O)ccc34)C(F)(F)C(F)(F)C2(F)F)cc1 [S162]
Result: 0.119

Query: Give recorded Absorbance at PSS, full. CC(C)(C)c1ccc(-c2sc(C(C)(C)C)cc2C2=C(c3cc(C(C)(C)C)sc3-c3ccc(C(C)(C)C)s3)C(F)(F)C(F)(F)C2(F)F)s1 [S073]
Result: 0.0105

Query: Give recorded Absorbance at PSS, full. CC(C)Oc1ccc(-c2cc(C3=C(c4cc(-c5ccc(OC(C)C)cc5)sc4-c4ccc(OC(C)C)cc4)C(F)(F)C(F)(F)C3(F)F)c(-c3ccc(OC(C)C)cc3)s2)cc1 [S092]
Result: 0.162

###

molecules and their reported Absorbance at PSS, +UV
- assay-explanation: Absorbance at photostationary state (PSS) under simulated sunlight or 365 nm light
- Type: physicochemical
- condition-parameters: simulated sunlight with UV blocking film (cutoff 370 nm); 2.0×10^−5 M in triglyme

Answered cases to consult:
COCCOCCOCCOc1ccc(-c2sc(-c3ccc(C(C)(C)C)s3)cc2C2=C(c3cc(-c4ccc(C(C)(C)C)s4)sc3-c3ccc(OCCOCCOCCOC)cc3)C(F)(F)C(F)(F)C2(F)F)cc1: 0.215
FC1(F)C(c2nc(-c3ccccc3)sc2-c2ccccc2)=C(c2nc(-c3ccccc3)sc2-c2ccccc2)C(F)(F)C1(F)F: 0.016
Cc1ccc(-c2cc(C3=C(c4cc(-c5ccc(C)s5)sc4-c4ccc(C)s4)C(F)(F)C(F)(F)C3(F)F)c(-c3ccc(C)s3)s2)s1: 0.154
COc1ccc(-c2cc(C3=C(c4cc(-c5ccc(OC)cc5)sc4-c4ccc(C#N)cc4)C(F)(F)C(F)(F)C3(F)F)c(-c3ccc(C#N)cc3)s2)cc1: 0.071
COc1ccc2c(C3=C(c4c(-c5ccc(-c6ccc(C(C)(C)C)s6)s5)oc5cc(OC)ccc45)C(F)(F)C(F)(F)C3(F)F)c(-c3ccc(-c4ccc(C(C)(C)C)s4)s3)oc2c1: 0.06

Query: Give recorded Absorbance at PSS, +UV. "Cc1c(-c2ccccc2)sc(-c2ccccc2)c1C1=C(c2c(-c3ccccc3)sc(-c3ccccc3)c2C)C(F)(F)C(F)(F)C1(F)F"
Result: 0.0025

Query: Give recorded Absorbance at PSS, +UV. "Cc1ccc(-c2sc(-c3cccs3)cc2C2=C(c3cc(-c4cccs4)sc3-c3ccc(C)s3)C(F)(F)C(F)(F)C2(F)F)s1"
Result: 0.116

Query: Give recorded Absorbance at PSS, +UV. "Cc1cc(-c2sc(C)c(C)c2C2=C(c3c(-c4cc(C)c(C)s4)sc(C)c3C)C(F)(F)C(F)(F)C2(F)F)sc1C"
Result: 0.028

Query: Give recorded Absorbance at PSS, +UV. "Cc1sc(-c2cc(C3=C(c4cc(-c5sc(C)c6c5OCCO6)sc4-c4sc(C)c5c4OCCO5)C(F)(F)C(F)(F)C3(F)F)c(-c3sc(C)c4c3OCCO4)s2)c2c1OCCO2"
Result: 0.016

Query: Give recorded Absorbance at PSS, +UV. "CC(C)(C)c1ccc(-c2oc3cc(O)ccc3c2C2=C(c3c(-c4ccc(C(C)(C)C)cc4)oc4cc(O)ccc34)C(F)(F)C(F)(F)C2(F)F)cc1"
Result: 0.06
